MEASURED TARGET: TTX resistant Na channel of human SNS-expressing cell (SNS) (Homo sapiens)
Sequence (Q9Y5Y9 whole entry, looked up): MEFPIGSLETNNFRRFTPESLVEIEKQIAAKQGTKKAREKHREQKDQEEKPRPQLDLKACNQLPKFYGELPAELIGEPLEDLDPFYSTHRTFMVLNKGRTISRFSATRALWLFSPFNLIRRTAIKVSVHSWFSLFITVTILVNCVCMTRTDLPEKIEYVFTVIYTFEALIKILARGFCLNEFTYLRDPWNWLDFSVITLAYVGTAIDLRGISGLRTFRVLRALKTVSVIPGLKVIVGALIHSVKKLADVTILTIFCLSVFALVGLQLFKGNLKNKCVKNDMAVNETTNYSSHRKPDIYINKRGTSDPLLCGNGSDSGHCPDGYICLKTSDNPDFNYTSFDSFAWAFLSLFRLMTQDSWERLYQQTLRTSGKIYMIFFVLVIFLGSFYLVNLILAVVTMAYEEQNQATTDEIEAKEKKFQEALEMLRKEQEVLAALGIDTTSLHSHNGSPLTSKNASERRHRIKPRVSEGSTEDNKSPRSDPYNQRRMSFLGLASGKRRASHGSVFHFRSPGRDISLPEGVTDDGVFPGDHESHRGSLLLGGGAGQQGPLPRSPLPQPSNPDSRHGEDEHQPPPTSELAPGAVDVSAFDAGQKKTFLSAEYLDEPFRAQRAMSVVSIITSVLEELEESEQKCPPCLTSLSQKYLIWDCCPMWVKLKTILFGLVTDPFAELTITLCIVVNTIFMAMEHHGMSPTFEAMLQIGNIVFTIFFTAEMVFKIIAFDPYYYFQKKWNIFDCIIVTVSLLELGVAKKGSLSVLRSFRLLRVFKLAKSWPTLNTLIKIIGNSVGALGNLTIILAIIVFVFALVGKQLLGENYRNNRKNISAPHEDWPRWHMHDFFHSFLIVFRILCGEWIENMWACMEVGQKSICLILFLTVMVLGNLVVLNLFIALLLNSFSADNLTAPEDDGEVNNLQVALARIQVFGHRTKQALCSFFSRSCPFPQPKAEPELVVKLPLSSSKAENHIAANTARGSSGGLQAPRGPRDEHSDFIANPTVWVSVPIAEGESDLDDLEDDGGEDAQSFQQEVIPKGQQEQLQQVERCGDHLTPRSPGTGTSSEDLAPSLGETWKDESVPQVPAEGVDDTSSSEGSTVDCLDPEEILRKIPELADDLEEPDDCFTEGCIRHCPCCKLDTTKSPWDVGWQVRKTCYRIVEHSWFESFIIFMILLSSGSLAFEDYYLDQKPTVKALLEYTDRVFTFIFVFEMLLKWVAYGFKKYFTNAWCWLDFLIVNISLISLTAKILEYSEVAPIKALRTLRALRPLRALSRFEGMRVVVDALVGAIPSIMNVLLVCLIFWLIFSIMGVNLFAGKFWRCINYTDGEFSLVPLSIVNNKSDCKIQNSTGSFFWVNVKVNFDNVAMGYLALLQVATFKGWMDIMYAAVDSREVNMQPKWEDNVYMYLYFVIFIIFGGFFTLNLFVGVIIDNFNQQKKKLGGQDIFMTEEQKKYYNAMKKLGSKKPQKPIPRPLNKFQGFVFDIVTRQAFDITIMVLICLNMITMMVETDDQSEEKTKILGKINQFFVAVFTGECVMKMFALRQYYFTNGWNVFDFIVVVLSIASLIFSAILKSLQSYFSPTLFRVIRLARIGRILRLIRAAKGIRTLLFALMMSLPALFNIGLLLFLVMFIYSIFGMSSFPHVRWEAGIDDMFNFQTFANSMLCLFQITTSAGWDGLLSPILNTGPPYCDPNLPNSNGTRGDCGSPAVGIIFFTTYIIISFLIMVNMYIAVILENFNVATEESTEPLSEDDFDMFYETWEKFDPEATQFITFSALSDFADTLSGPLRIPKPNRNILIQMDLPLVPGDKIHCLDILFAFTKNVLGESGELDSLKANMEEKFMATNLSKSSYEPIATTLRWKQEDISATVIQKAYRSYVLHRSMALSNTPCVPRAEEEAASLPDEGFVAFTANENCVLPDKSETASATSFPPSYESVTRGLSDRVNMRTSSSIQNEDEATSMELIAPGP
METHOD SUMMARY: cell-based
APPLIED CONDITIONS: CHO-K1, compound concentration 12.5 μM; read-out: SNS inhibitory rate (%)
ENDPOINT: inhibition at 12.5 µM (%)
Give bare numbers, in %.

Example results:
CCOCCn1c(CN[C@@H](CC)C(N)=O)nc2ccc(-c3ccc(F)cc3)cc21 [Example 150] | 45.6
CCOCCn1c(CN[C@@H](C)C(N)=O)nc2ccc(-c3ccccc3C)cc21 [Example 153] | 28.5
COCCCn1c(CNCC(N)=O)nc2ccc(Oc3ccccc3)cc21 [Example 23] | 0.8

Hey, quick one: what's inhibition at 12.5 µM for each of these?
1. CCOCCn1c(CN[C@@H](C)C(=O)NCCN2CCOCC2)nc2ccc(Oc3ccc(F)cc3)cc21 [Example 89]
2. CCn1c(CN[C@@H](C)C(N)=O)nc2cc(F)c(-c3ccc(F)cc3)cc21 [Example 111]
3. CCOCCn1c(CN[C@@H](C)C(N)=O)nc2cc(C)c(-c3ccc(F)cc3)cc21 [Example 113]
4. C[C@H](NCc1nc2ccc(Oc3ccc(F)cc3)cc2n1C[C@@H]1CCCO1)C(N)=O [Example 56]
5. C[C@H](NCc1nc2ccc(Oc3ccc(F)cc3)cc2n1C1CCOCC1)C(N)=O [Example 6]

A:
1. 83
2. 88.4
3. 64.7
4. 82.2
5. 77.8

Each recorded value in this set is attributed to patent US20130303535A1.
